Data provenance is ChEMBL document CHEMBL4052773.

Recorded remaining at 0.5 h, 1 µM for the following compounds
- testMethodNotes: Stability in human liver microsomes assessed as parent compound remaining at 1 uM after 30 mins in presence of NADPH by LC-MS/MS analysis
- Type: ADME, microsome
- testParameters: read-out: Stability
valueKind: remaining at 0.5 h, 1 µM (%)

[[record]]
testsmiles = "CC(C)c1cc(CN2Cc3ccccc3S2(=O)=O)nn1-c1ccccc1"
valuekind = "remaining at 0.5 h, 1 µM"
readoutnumber = 4.69

[[record]]
testsmiles = "CC(C)c1cc(CN2Cc3ccccc3S2(=O)=O)nn1-c1ccc(F)cc1"
valuekind = "remaining at 0.5 h, 1 µM"
readoutnumber = 102

[[record]]
testsmiles = "CC(C)Cc1cc(CN(C)S(=O)(=O)c2ccccc2)nn1-c1ccccc1"
valuekind = "remaining at 0.5 h, 1 µM"
readoutnumber = 1.46

[[record]]
testsmiles = "CC(C)Cc1cc(CNS(=O)(=O)c2ccccc2)nn1-c1ccccc1"
valuekind = "remaining at 0.5 h, 1 µM"
readoutnumber = 13.9

[[record]]
testsmiles = "CC(C)c1cc(CN2Cc3ccccc3S2(=O)=O)nn1C(C)(C)C"
valuekind = "remaining at 0.5 h, 1 µM"
readoutnumber = 103

[[record]]
testsmiles = "Cc1c(CNS(=O)(=O)c2ccccc2)nn(-c2ccccc2)c1CC(C)C"
valuekind = "remaining at 0.5 h, 1 µM"
readoutnumber = 0.26


* * *

- testMethodNotes: Terminal half-life in rat at 10 mg/kg, iv
- Assay type: ADME, organism-based
- testParameters: in vivo, read-out: beta t1/2
valueKind: half-life (min)

[[record]]
testsmiles = "CC(C)c1cc(CN2Cc3ccccc3S2(=O)=O)nn1-c1ccc(F)cc1"
valuekind = "half-life"
readoutnumber = 176


* * *

- targetSystem: Voltage-dependent T-type calcium channel subunit alpha-1H (Homo sapiens, UniProt O95180)
- Sequence (O95180 whole entry): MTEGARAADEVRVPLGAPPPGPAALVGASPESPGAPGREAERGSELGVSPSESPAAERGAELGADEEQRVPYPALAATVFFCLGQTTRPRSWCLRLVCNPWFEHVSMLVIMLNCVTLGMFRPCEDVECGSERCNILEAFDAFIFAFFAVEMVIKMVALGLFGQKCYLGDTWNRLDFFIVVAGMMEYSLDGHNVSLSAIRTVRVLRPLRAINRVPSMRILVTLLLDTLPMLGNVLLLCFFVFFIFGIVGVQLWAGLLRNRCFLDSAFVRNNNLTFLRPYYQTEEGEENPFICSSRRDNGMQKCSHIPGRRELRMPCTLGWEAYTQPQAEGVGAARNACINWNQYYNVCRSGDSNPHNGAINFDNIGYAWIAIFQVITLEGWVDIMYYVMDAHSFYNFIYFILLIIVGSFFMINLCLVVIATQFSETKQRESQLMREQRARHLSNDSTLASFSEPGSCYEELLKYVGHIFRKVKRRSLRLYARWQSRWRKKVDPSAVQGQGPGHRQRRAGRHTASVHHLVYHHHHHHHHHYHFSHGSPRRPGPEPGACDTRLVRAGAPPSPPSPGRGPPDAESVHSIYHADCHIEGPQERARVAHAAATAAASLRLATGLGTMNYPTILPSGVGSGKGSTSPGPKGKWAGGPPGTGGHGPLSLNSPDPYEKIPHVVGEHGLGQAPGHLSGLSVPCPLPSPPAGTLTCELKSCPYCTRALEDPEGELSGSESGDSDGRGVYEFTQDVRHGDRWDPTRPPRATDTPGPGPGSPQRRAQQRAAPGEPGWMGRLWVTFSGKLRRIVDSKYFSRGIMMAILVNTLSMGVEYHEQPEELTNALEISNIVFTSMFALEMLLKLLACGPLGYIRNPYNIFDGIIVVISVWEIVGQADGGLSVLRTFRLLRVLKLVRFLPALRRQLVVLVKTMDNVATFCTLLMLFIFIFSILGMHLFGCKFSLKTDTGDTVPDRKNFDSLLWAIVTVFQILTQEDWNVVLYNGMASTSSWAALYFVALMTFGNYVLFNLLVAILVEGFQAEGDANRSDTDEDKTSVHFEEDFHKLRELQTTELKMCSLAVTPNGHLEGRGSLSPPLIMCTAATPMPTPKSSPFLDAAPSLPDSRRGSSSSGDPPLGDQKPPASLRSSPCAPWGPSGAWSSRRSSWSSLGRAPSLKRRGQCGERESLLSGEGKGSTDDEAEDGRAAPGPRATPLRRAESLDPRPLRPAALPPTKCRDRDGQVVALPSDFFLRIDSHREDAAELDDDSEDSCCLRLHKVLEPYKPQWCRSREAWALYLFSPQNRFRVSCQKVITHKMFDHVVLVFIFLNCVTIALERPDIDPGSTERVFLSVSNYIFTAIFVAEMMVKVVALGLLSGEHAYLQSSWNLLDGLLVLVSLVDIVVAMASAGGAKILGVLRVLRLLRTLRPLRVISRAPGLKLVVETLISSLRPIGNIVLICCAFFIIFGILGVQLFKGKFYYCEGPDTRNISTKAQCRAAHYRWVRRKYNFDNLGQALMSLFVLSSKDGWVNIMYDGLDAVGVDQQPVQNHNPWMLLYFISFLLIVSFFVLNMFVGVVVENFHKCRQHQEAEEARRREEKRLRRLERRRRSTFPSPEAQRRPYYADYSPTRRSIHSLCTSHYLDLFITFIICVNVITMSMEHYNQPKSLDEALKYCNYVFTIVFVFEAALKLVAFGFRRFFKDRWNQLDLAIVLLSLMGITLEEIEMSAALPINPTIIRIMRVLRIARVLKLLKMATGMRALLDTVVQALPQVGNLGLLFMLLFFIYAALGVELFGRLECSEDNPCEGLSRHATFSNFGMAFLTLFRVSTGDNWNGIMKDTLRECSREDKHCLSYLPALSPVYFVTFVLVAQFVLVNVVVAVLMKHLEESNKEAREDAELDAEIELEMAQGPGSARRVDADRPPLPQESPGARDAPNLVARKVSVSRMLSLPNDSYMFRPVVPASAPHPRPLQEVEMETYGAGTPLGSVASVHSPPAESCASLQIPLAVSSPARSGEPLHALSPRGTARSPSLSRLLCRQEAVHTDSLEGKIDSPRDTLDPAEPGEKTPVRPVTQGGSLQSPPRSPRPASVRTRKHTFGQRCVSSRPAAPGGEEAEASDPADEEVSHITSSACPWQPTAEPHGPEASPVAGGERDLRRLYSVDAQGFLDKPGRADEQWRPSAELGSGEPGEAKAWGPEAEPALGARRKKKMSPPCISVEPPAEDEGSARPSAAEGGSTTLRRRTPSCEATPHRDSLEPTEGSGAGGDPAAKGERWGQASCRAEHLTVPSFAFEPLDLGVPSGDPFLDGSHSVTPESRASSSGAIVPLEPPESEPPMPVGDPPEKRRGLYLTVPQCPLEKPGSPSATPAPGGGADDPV
- testMethodNotes: Inhibition of Cav3.2 alpha1H (unknown origin) expressed in HEK293 cells by whole-cell patch clamp assay
valueKind: IC50 (µM)

[[record]]
testsmiles = "CC(C)c1cc(CN2Cc3ccccc3S2(=O)=O)nn1-c1ccc(F)cc1"
targetsystem = "Voltage-dependent T-type calcium channel subunit alpha-1H (Homo sapiens, UniProt O95180)"
unittext = "µM"
readoutnumber = 2.32

[[record]]
testsmiles = "Cc1c(CNS(=O)(=O)c2ccccc2)nn(-c2ccccc2)c1CC(C)C"
targetsystem = "Voltage-dependent T-type calcium channel subunit alpha-1H (Homo sapiens, UniProt O95180)"
unittext = "µM"
readoutnumber = 4.3

[[record]]
testsmiles = "CC(C)c1cc(CN2Cc3ccccc3S2(=O)=O)nn1-c1ccccc1"
targetsystem = "Voltage-dependent T-type calcium channel subunit alpha-1H (Homo sapiens, UniProt O95180)"
unittext = "µM"
readoutnumber = 2.52

[[record]]
testsmiles = "CC(C)c1cc(CN2Cc3ccccc3S2(=O)=O)nn1C(C)(C)C"
targetsystem = "Voltage-dependent T-type calcium channel subunit alpha-1H (Homo sapiens, UniProt O95180)"
unittext = "µM"
readoutnumber = 3.69


* * *

- testMethodNotes: AUC (0 to infinity) in rat at 10 mg/kg, iv
- Format: ADME, organism-based
- Parameters: dose 10 mg/kg, route intravenous, time infinity
- testParameters: in vivo
valueKind: AUC(0-inf) (ng·h/mL)

[[record]]
testsmiles = "CC(C)c1cc(CN2Cc3ccccc3S2(=O)=O)nn1-c1ccc(F)cc1"
unittext = "ng·h/mL"
readoutnumber = 2980

